# Test system: NK-92 (IL-2 2.5 ng/mL)
# Procedure Details: drug sensitivity score (DSS) (DSS units); higher = more sensitive; extreme values may be limits of the assay
# Experimental Setup: 72 h
Test Readout: drug sensitivity score

> print(dat)
                                   compound             measured.on            test.readout  test.value
1  COc1cc(Nc2ncc(F)c(Nc3ccc4c(n3)NC(=O)C(C)(C)O4)n2)cc(OC)c1OC [Tamatinib] (max concentration tested 10000 nM)  NK-92 (IL-2 2.5 ng/mL)  drug sensitivity score        6.83
2  O=C(Nc1cccc(Cl)c1)Nc1ncc(CCNc2ncnc3ccsc23)s1 [SNS-314] (max concentration tested 1000 nM)  NK-92 (IL-2 2.5 ng/mL)  drug sensitivity score        11.2
3  Cc1cc(Nc2cc(CN3CCOCC3)c3nc(C)c(Cc4ccc(Cl)cc4F)n3n2)n[nH]1 [Gandotinib] (max concentration tested 10000 nM)  NK-92 (IL-2 2.5 ng/mL)  drug sensitivity score        18.3
4  O=C(c1ccc(F)c(F)c1Nc1ccc(I)cc1F)N1CC(O)([C@@H]2CCCCN2)C1 [Cobimetinib] (max concentration tested 1000 nM)  NK-92 (IL-2 2.5 ng/mL)  drug sensitivity score           0
5  FC(F)(F)c1ccc(/C=C/c2nc(COc3ccc(CCCCn4ccnn4)cc3)co2)cc1 [Mubritinib] (max concentration tested 1000 nM)  NK-92 (IL-2 2.5 ng/mL)  drug sensitivity score        6.23
6  CC[C@@H]1C(=O)OC[C@@H]1Cc1cncn1C [Pilocarpine] (max concentration tested 40000 nM)  NK-92 (IL-2 2.5 ng/mL)  drug sensitivity score        0.79
